Each item that follows carries a reported pIC50.
target: full-length beta-Catenin (Uniprot ID P35222) (Homo sapiens, UniProt P35222); construct: 10 nM full-length beta-Catenin (Uniprot ID P35222); test: Fluorescence polarization IC50 (beta-catenin / 5FAM-TCF4 10-53 competition); type: binding; details: fluorescence polarization; read-out: beta-Catenin FP IC50
Sequence (P35222 whole entry): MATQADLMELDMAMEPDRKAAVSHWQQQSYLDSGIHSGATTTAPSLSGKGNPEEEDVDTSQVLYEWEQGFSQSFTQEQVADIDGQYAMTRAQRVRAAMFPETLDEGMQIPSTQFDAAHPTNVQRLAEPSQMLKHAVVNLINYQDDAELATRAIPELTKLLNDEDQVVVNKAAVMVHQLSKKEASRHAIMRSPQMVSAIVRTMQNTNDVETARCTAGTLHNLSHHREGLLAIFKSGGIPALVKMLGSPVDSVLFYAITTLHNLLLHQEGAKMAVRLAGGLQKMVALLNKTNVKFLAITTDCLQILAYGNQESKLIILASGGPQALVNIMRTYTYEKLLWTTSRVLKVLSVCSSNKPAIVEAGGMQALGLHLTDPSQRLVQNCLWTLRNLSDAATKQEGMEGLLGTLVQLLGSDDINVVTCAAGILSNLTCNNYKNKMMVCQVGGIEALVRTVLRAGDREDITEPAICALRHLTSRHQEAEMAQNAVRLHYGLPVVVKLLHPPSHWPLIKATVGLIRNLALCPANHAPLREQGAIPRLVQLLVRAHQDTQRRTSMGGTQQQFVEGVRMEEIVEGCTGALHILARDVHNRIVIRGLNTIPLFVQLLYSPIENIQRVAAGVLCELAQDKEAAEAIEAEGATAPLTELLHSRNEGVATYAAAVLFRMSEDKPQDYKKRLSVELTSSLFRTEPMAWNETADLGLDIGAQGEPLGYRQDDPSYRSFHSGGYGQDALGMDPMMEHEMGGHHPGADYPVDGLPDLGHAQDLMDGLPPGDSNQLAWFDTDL
Entry type: numeric. Quantity: pIC50, the -log10 of concentration in molar units.

compound: CC(=O)N1CCC[C@]12CC=CCCCC1(CCCC=CCCCOC(=O)N3CC[C@@](C(=O)N[C@@H](Cc4ccsc4)C(=O)N[C@@H](Cc4csc5ccccc45)C(=O)N[C@@H](CCC(N)=O)C(N)=O)(C3)NC(=O)[C@H](CC(C)C)NC(=O)[C@H](Cc3ccccc3)NC(=O)[C@H](C)NC(=O)[C@H](C)NC(=O)[C@H](Cc3c[nH]c4ccccc34)NC(=O)[C@H](CC(=O)O)NC1=O)NC(=O)[C@H](CC(C)(C)C)NC(=O)[C@H](CC(=O)O)NC2=O (stereo partly drawn)
pIC50: 6.46

compound: CC(=O)N1CCC[C@]12CC=CCCCC1(CCCC=CCCCOC(=O)N3CC[C@@](C(=O)N[C@@H](Cc4ccccc4Cl)C(=O)N[C@@H](Cc4csc5ccccc45)C(=O)N[C@@H](CN4CCOCC4)C(N)=O)(C3)NC(=O)[C@H](CC(N)=O)NC(=O)[C@H](Cc3ccccc3)NC(=O)[C@H](C)NC(=O)[C@H](C)NC(=O)[C@H](CC(=O)O)NC(=O)[C@H](CC(=O)O)NC1=O)NC(=O)[C@H](CC(C)(C)C)NC(=O)[C@H](CC(=O)O)NC2=O (stereo partly drawn) [I-1133]
pIC50: 8.30

Could you now look at the following compound, please?
Prompt: Could you tell me which pIC50 is on file for CC(=O)N1CCC[C@]12CC=CCCCC1(CCCC=CCCCOC(=O)N3CC[C@@](C(=O)N[C@@H](Cc4ccccc4C(F)(F)F)C(=O)N[C@@H](Cc4csc5ccccc45)C(=O)N[C@@H](CCC(N)=O)C(=O)N[C@@H](CC(C)C)C(=O)NC4(C(N)=O)CCCC4)(C3)NC(=O)[C@H](CC(C)C)NC(=O)[C@H](Cc3ccccc3)NC(=O)[C@H](C)NC(=O)[C@H](C)NC(=O)[C@H](Cc3cccc(C(=O)O)c3)NC(=O)[C@H](CC(=O)O)NC1=O)NC(=O)[C@H](CC(C)(C)C)NC(=O)[C@H](CC(=O)O)NC2=O (stereo partly drawn) ?
Response: 6.92

Source: patent US20240116985A1
